Property: APTT; scope: individual molecules
species on record: Rattus norvegicus; assay: Open TG-GATES - Regimen: Single; format: toxicity, organism-based, Sprague-Dawley; parameters: regimen Single, gender Male, age 6 weeks; details: in vivo, po, 30 mg/kg, 6 h, tissue Blood, route gavage, dose level Middle
readout-label: APTT (s)

# smiles-record, readout-label, observed-value
records = [
    ("CC1=C(/C=C/C(C)=C/C=C/C(C)=C/CO)C(C)(C)CCC1", "APTT", 21.5),
    ("CN(C)CCN(Cc1cccs1)c1ccccn1", "APTT", 21.5),
    ("CN(C)CCCN1c2ccccc2CCc2ccccc21", "APTT", 16.1),
    ("CN(C)CCCN1c2ccccc2CCc2ccc(Cl)cc21", "APTT", 15.9),
]

Reference for the values: ChEMBL document CHEMBL3885861
